# assay.info: Pharmacokinetics of evacetrapib in plasma, liver and brain after a single tail vein injection (UHPLC-MS-qTOF)
# Assay type: in vivo, hCETPtg mice (C57BL/6J background)
# test.conditions: male, hCETPtg (C57BL/6J background), mouse, brain, iv, 40 mg/kg, brain, 40 mg/kg BW i.v.; read-out: t1/2β (half-life) (converted)
quantity.name: half-life (h)
Your answer is read as h, so omit the unit and give the number.

Memo: `Cc1cc(C)c2c(c1)[C@@H](N(Cc1cc(C(F)(F)F)cc(C(F)(F)F)c1)c1nnn(C)n1)CCCN2C[C@H]1CC[C@H](C(=O)O)CC1` , reported half-life: 2.8

----------
# assay.info: Semi-PBPK three-compartment model of distribution to the brain
# Design: species or system mice
# test.conditions: male, hCETPtg (C57BL/6J background), mouse, intravenous; two-compartment model, fitted to plasma concentration at 40 mg/kg BW; read-out: Elimination constant (Kel) (converted)
quantity.name: k el (s⁻¹)
Your answer is read as s⁻¹, so omit the unit and give the number.

Memo: `Cc1cc(C)c2c(c1)[C@@H](N(Cc1cc(C(F)(F)F)cc(C(F)(F)F)c1)c1nnn(C)n1)CCCN2C[C@H]1CC[C@H](C(=O)O)CC1` , reported k el: 0.000386

----------
# assay.info: Pharmacokinetics of evacetrapib in plasma, liver and brain after a single tail vein injection (UHPLC-MS-qTOF)
# Assay type: in vivo, hCETPtg mice (C57BL/6J background)
# test.conditions: male, hCETPtg (C57BL/6J background), mouse, iv; plasma, 40 mg/kg BW i.v.; read-out: CL (drug clearance) (converted)
quantity.name: clearance (mL/min)
Your answer is read as mL/min, so omit the unit and give the number.

Memo: Cc1cc(C)c2c(c1)[C@@H](N(Cc1cc(C(F)(F)F)cc(C(F)(F)F)c1)c1nnn(C)n1)CCCN2C[C@H]1CC[C@H](C(=O)O)CC1 [evacetrapib] , reported clearance: 0.157

----------
# assay.info: Pharmacokinetics of evacetrapib in plasma, liver and brain after a single tail vein injection (UHPLC-MS-qTOF)
# Assay type: in vivo, hCETPtg mice (C57BL/6J background)
# test.conditions: male, hCETPtg (C57BL/6J background), mouse, liver, iv, 120 mg/kg, liver, 120 mg/kg BW i.v.; read-out: t1/2β (half-life) (converted)
quantity.name: half-life (h)
Your answer is read as h, so omit the unit and give the number.

Memo: `Cc1cc(C)c2c(c1)[C@@H](N(Cc1cc(C(F)(F)F)cc(C(F)(F)F)c1)c1nnn(C)n1)CCCN2C[C@H]1CC[C@H](C(=O)O)CC1` , reported half-life: 2.5

----------
# assay.info: Pharmacokinetics of evacetrapib in plasma, liver and brain after a single tail vein injection (UHPLC-MS-qTOF)
# Type: in vivo, hCETPtg mice (C57BL/6J background)
# test.conditions: male, hCETPtg (C57BL/6J background), mouse, plasma, iv, 120 mg/kg, plasma, 120 mg/kg BW i.v.; read-out: t1/2β (half-life) (converted)
quantity.name: half-life (h)
Your answer is read as h, so omit the unit and give the number.

Memo: Cc1cc(C)c2c(c1)[C@@H](N(Cc1cc(C(F)(F)F)cc(C(F)(F)F)c1)c1nnn(C)n1)CCCN2C[C@H]1CC[C@H](C(=O)O)CC1 [evacetrapib] , reported half-life: 3

----------
# assay.info: Pharmacokinetics of evacetrapib in plasma, liver and brain after a single tail vein injection (UHPLC-MS-qTOF)
# Format: in vivo, hCETPtg mice (C57BL/6J background)
# test.conditions: male, hCETPtg (C57BL/6J background), mouse, brain, iv; both doses, 40 and 120 mg/kg BW i.v.; read-out: Time of peak concentration in the brain
quantity.name: Tmax
Your answer should be a number followed by the unit of measure.

Memo: Cc1cc(C)c2c(c1)[C@@H](N(Cc1cc(C(F)(F)F)cc(C(F)(F)F)c1)c1nnn(C)n1)CCCN2C[C@H]1CC[C@H](C(=O)O)CC1 [evacetrapib] , reported Tmax: 30 min

----------
# assay.info: Pharmacokinetics of evacetrapib in plasma, liver and brain after a single tail vein injection (UHPLC-MS-qTOF)
# Format: in vivo, hCETPtg mice (C57BL/6J background)
# test.conditions: male, hCETPtg (C57BL/6J background), mouse, brain, iv, 120 mg/kg, brain, 120 mg/kg BW i.v.; read-out: t1/2β (half-life) (converted)
quantity.name: half-life (h)
Your answer is read as h, so omit the unit and give the number.

Memo: `Cc1cc(C)c2c(c1)[C@@H](N(Cc1cc(C(F)(F)F)cc(C(F)(F)F)c1)c1nnn(C)n1)CCCN2C[C@H]1CC[C@H](C(=O)O)CC1` , reported half-life: 2.5

----------
# assay.info: Pharmacokinetics of evacetrapib in plasma, liver and brain after a single tail vein injection (UHPLC-MS-qTOF)
# Format: in vivo, hCETPtg mice (C57BL/6J background)
# test.conditions: male, hCETPtg (C57BL/6J background), mouse, brain, iv, 120 mg/kg, brain, 120 mg/kg BW i.v.; read-out: Kβ (elimination rate constant) (converted)
quantity.name: k el (s⁻¹)
Your answer is read as s⁻¹, so omit the unit and give the number.

Memo: `Cc1cc(C)c2c(c1)[C@@H](N(Cc1cc(C(F)(F)F)cc(C(F)(F)F)c1)c1nnn(C)n1)CCCN2C[C@H]1CC[C@H](C(=O)O)CC1` , reported k el: 8.33e-05

----------
# assay.info: Pharmacokinetics of evacetrapib in plasma, liver and brain after a single tail vein injection (UHPLC-MS-qTOF)
# Assay type: in vivo, hCETPtg mice (C57BL/6J background)
# test.conditions: male, hCETPtg (C57BL/6J background), mouse, iv; plasma, 120 mg/kg BW i.v.; read-out: Vss (volume of distribution at steady state)
quantity.name: Vd

Memo: Cc1cc(C)c2c(c1)[C@@H](N(Cc1cc(C(F)(F)F)cc(C(F)(F)F)c1)c1nnn(C)n1)CCCN2C[C@H]1CC[C@H](C(=O)O)CC1 [evacetrapib] , reported Vd: 0.0053 L

----------
# assay.info: Pharmacokinetics of evacetrapib in plasma, liver and brain after a single tail vein injection (UHPLC-MS-qTOF)
# Format: in vivo, hCETPtg mice (C57BL/6J background)
# test.conditions: male, hCETPtg (C57BL/6J background), mouse, iv; liver, 40 mg/kg BW i.v.; read-out: MRT (mean residence time)
# Method: The experiment was performed in conformity with the OECD Guidelines 417 ([OECD, 2010]). Male hCETPtg mice were chosen for the pharmacokinetic analysis. […] Quantification was performed using a seven-point calibration curve with the internal standard correction prepared in the brain, liver, or plasma, respectively. […]
quantity.name: MRT (h)
Your answer is read as h, so omit the unit and give the number.

Memo: `Cc1cc(C)c2c(c1)[C@@H](N(Cc1cc(C(F)(F)F)cc(C(F)(F)F)c1)c1nnn(C)n1)CCCN2C[C@H]1CC[C@H](C(=O)O)CC1` , reported MRT: 4.4

----------
# assay.info: Pharmacokinetics of evacetrapib in plasma, liver and brain after a single tail vein injection (UHPLC-MS-qTOF)
# Format: in vivo, hCETPtg mice (C57BL/6J background)
# test.conditions: male, hCETPtg (C57BL/6J background), mouse, plasma, iv, 120 mg/kg, plasma, 120 mg/kg BW i.v.; read-out: Kβ (elimination rate constant) (converted)
quantity.name: k el (s⁻¹)
Your answer is read as s⁻¹, so omit the unit and give the number.

Memo: Cc1cc(C)c2c(c1)[C@@H](N(Cc1cc(C(F)(F)F)cc(C(F)(F)F)c1)c1nnn(C)n1)CCCN2C[C@H]1CC[C@H](C(=O)O)CC1 [evacetrapib] , reported k el: 5.56e-05

The origin of these recorded values is paper PMC10390775.
